assay: Rate of encapsulation of Luc DNA in lipid nanoparticles; format: physicochemical; parameters: unit: %; conditions: Luc DNA-encapsulated lipid nanoparticles; cationic lipid:DPPC:cholesterol:GM-020=60:10.6:28:1.4 molar ratio
// reported Rate of encapsulation for each item listed
Form rule: numeric answer, no unit written next to it.

Check out these entries, answers already filled in.
CCCCCCCOC(=O)CCCCC(=O)OCC(COC(=O)CCCN(C)C)(COC(=O)CC(CCCCC)CCCCC)COC(=O)CC(CCCCC)CCCCC | 97.0
CCCCCCCOC(=O)CCCCC(=O)OCC(COC(=O)CCCCC(=O)OCCCCCCC)(COC(=O)CCCN(C)C)COC(=O)C(CCCCC)CCCCC | 92.9
CCCCCC(CCCCC)CC(=O)OCC(COC(=O)CCCCC(=O)OCCCC)(COC(=O)CCN(C)C)COC(=O)CC(CCCCC)CCCCC | 95.4
CCCCCC(CCCCC)COC(=O)CCC(=O)OCC(COC(=O)CCCN(C)C)(COC(=O)CCC(=O)OCC(CCCCC)CCCCC)COC(=O)CC(CCCCC)CCCCC | 99.1

Data point: CCCCCC(CCCCC)CC(=O)OCC(COC(=O)CCCCCCCC(=O)OCCCC)(COC(=O)CCCN(C)C)COC(=O)CC(CCCCC)CCCCC ; Rate of encapsulation = 52.7

Given item CCCCCCCCCCC(C(=O)OC)C(=O)OCC(COC(=O)CCCN(CC)C(C)C)(COC(=O)CC(CCCCC)CCCCC)COC(=O)C(CCCCCCCCCC)C(=O)OC (stereo not drawn) , the value recorded as its Rate of encapsulation is 97.1

In plain terms, CCCCCC(CCCCC)CC(=O)OCC(COC(=O)CCCCCCCC(=O)OC)(COC(=O)CCCCCCCC(=O)OC)COC(=O)CCCN(C)C has a documented Rate of encapsulation of 96.1

The compound listed as CCCCCOC(=O)CCCCCCCC(=O)OCC(COC(=O)CCCCCCCC(=O)OCCCCC)(COC(=O)CCCCCCCC(=O)OCCCCC)COC(=O)CCCN(C)C has a reported Rate of encapsulation of 79.7

Data point: CCCCCC(CCCCC)COC(=O)CCC(=O)OCC(COC(=O)CCCCN(C)C)(COC(=O)CCC(=O)OCC(CCCCC)CCCCC)COC(=O)CCC(=O)OCC(CCCCC)CCCCC ; Rate of encapsulation = 95.2

// field: Rate of encapsulation; key: CCCCCCCOC(=O)CCCCC(=O)OCC(COC(=O)CCCCC(=O)OCCCCCCC)(COC(=O)CCCN(C)C)COC(=O)CC(CCCC)CCCC ; value = 93.5

In plain terms, CCCCCC(CCCCC)CC(=O)OCC(COC(=O)CCCCC(=O)OCCCC)(COC(=O)CCCN(CC)CC)COC(=O)CC(CCCCC)CCCCC has a documented Rate of encapsulation of 96.2

Lab note: CCCCCCCCCOC(=O)CCCCC(=O)OCC(COC(=O)CCCN(C)C)(COC(=O)CC(CCCCC)CCCCC)COC(=O)CC(CCCCC)CCCCC gave Rate of encapsulation of 98.2

====

experiment: Particle size of Luc DNA-encapsulated lipid nanoparticles; assay type: physicochemical; conditions: cationic lipid:DPPC:cholesterol:GM-020=60:10.6:28:1.4 molar ratio
Parameter: Particle size (nm). Scope: all listed entries.
Answer with a number only, understood to be in nm.

Summary for this compound, CCCCCC(CCCCC)CC(=O)OCC(COC(=O)CCCCCCCCCCC(=O)OC)(COC(=O)CCCCCCCCCCC(=O)OC)COC(=O)CCCN(C)C [Example 77] : Particle size (nm) is 128.7

CCCCCCCOC(=O)CCCCC(=O)OCC(COC(=O)CCCCC(=O)OCCCCCCC)(COC(=O)CCCN(C)C)COC(=O)CC(CCC)CCCCCCC (stereo not drawn) [Example 28] yielded Particle size (nm) of 137.3

====

test: Rate of encapsulation of Luc DNA in lipid nanoparticles; assay type: physicochemical; set-up: unit: %; details: Luc DNA-encapsulated lipid nanoparticles; cationic lipid:DPPC:cholesterol:GM-020=60:10.6:28:1.4 molar ratio
Measured Rate of encapsulation, listed per entry for reference.
Enter the number alone.

CCCCCC(CCCCC)CC(=O)OCC(COC(=O)CCCCC(=O)OCCCC)(COC(=O)CCCN(C)C)COC(=O)CC(CCCCC)CCCCC [Example 20] | 97.2
CCCCCCCCOC(=O)CCCCC(=O)OCC(COC(=O)CCCCC(=O)OCCCCCCCC)(COC(=O)CCCN(C)C)COC(=O)CC(CCCCC)CCCCC [Example 43] | 96.0
CCCCCCCOC(=O)CCCCC(=O)OCC(COC(=O)CCCCC(=O)OCCCCCCC)(COC(=O)CCCN(C)C)COC(=O)CC(CCCCC)CCCCC [Example 13] | 96.3
CCCCCCOC(=O)CCCCCC(=O)OCC(COC(=O)CCCCCC(=O)OCCCCCC)(COC(=O)CCCN(CC)C(C)C)COC(=O)CC(CCCCC)CCCCC [Example 102] | 91.8

Here's the next entry for you.
For this compound ( CCCCCCCOC(=O)CCCCC(=O)OCC(COC(=O)CCCCC(=O)OCCCCCCC)(COC(=O)CCCN(C)CCCO)COC(=O)CC(CCCCC)CCCCC [Example 94] ), measured Rate of encapsulation is 93.0

====

experiment: Particle size of Luc DNA-encapsulated lipid nanoparticles; format: physicochemical; details: cationic lipid:DPPC:cholesterol:GM-020=60:10.6:28:1.4 molar ratio
Value type: Particle size (nm)
Reply with the number, then its unit.

Before answering, review these 3 worked examples.
CCCCCCCOC(=O)CCCCC(=O)OCC(COC(=O)CCCCC(=O)OCCCCCCC)(COC(=O)CCCN(C)C)COC(=O)C(CCCCC)CCCCC | 148.7 nm
CCCCCCCOC(=O)CCCCC(=O)OCC(COC(=O)CCCCN(C)C)(COC(=O)CC(CCCCC)CCCCC)COC(=O)CC(CCCCC)CCCCC | 138.9 nm
CCCCCCOC(=O)C(CCCCCC)C(=O)OCC(COC(=O)CCCCN(C)C)(COC(=O)CC(CCCCC)CCCCC)COC(=O)C(CCCCCC)C(=O)OCCCCCC (stereo not shown) | 152.1 nm

The molecule listed as CCCCCCCOC(=O)CCCCCCCC(=O)OCC(COC(=O)CCCCCCCC(=O)OCCCCCCC)(COC(=O)CCCN(C)C)COC(=O)CC(CCCCC)CCCCC has a reported Particle size (nm) of 143.9 nm

From: patent US20250197343A1
